# assay name: MRT (infinity) in Sprague-Dawley rat at 2 mg/kg, iv measured for 24 hrs by LC-MS/MS analysis
# Assay type: ADME, organism-based
# measurement conditions: in vivo
assay metric: MRT inf
Respond with a number, then the unit of measure.

What measured MRT inf goes with COc1cc(OC)cc(N(CCNC(C)C)c2ccc3ncc(-c4cnn(CCCCCCC(=O)NCCNc5cccc6c5C(=O)N(C5CCC(=O)NC5=O)C6=O)c4)nc3c2)c1 (stereo unspecified) ?
2.27 h

###

# assay name: AUC (infinity) in Sprague-Dawley rat at 2 mg/kg, iv measured for 24 hrs by LC-MS/MS analysis
# Assay type: ADME, organism-based
# measurement conditions: in vivo
assay metric: AUC(0-inf)
Respond with a number, then the unit of measure.

What measured AUC(0-inf) goes with COc1cc(OC)cc(N(CCNC(C)C)c2ccc3ncc(-c4cnn(CCCCCCC(=O)NCCNc5cccc6c5C(=O)N(C5CCC(=O)NC5=O)C6=O)c4)nc3c2)c1 (stereo unspecified) ?
570 ng·h/mL

###

# assay name: Tmax in Sprague-Dawley rat at 5 mg/kg, ip measured for 24 hrs by LC-MS/MS analysis
# Assay type: ADME, organism-based
# measurement conditions: in vivo
assay metric: Tmax (min)
Give bare numbers, in min.

What measured Tmax goes with COc1cc(OC)cc(N(CCNC(C)C)c2ccc3ncc(-c4cnn(CCCCCCC(=O)NCCNc5cccc6c5C(=O)N(C5CCC(=O)NC5=O)C6=O)c4)nc3c2)c1 (stereo unspecified) ?
15

###

# assay name: Oral bioavailability in Sprague-Dawley rat at 5 mg/kg measured for 24 hrs by LC-MS/MS analysis
# Format: ADME, organism-based
# measurement conditions: in vivo
assay metric: bioavailability (%)
Answers are plain numbers, in %.

What measured bioavailability goes with COc1cc(OC)cc(N(CCNC(C)C)c2ccc3ncc(-c4cnn(CCCCCCC(=O)NCCNc5cccc6c5C(=O)N(C5CCC(=O)NC5=O)C6=O)c4)nc3c2)c1 (stereo unspecified) ?
74.8

###

# Test system: BaF3
# assay name: Antiproliferative activity against mouse BaF3 cells stably expressing TEL-FGFR3 incubated for 72 hrs bby CellTiter-Glo assay
# measurement conditions: BaF3, 72 h
assay metric: pIC50
Answers are plain numbers, as −log10 of the molar value.

What measured pIC50 goes with COc1cc(OC)cc(N(CCNC(C)C)c2ccc3ncc(-c4cnn(CCCCCCC(=O)NCCNc5cccc6c5C(=O)N(C5CCC(=O)NC5=O)C6=O)c4)nc3c2)c1 (stereo unspecified) ?
7.01

###

# assay name: Clearance in Sprague-Dawley rat at 2 mg/kg, iv measured for 24 hrs by LC-MS/MS analysis
# Assay type: ADME, organism-based
# measurement conditions: in vivo
assay metric: clearance
Respond with a number, then the unit of measure.

What measured clearance goes with COc1cc(OC)cc(N(CCNC(C)C)c2ccc3ncc(-c4cnn(CCCCCCC(=O)NCCNc5cccc6c5C(=O)N(C5CCC(=O)NC5=O)C6=O)c4)nc3c2)c1 (stereo unspecified) ?
59.3 mL/min/kg

###

# assay name: AUC (infinity) in Sprague-Dawley rat at 5 mg/kg, ip measured for 24 hrs by LC-MS/MS analysis
# Format: ADME, organism-based
# measurement conditions: in vivo
assay metric: AUC(0-inf) (ng·h/mL)
One number for each entry, in ng·h/mL.

What measured AUC(0-inf) goes with COc1cc(OC)cc(N(CCNC(C)C)c2ccc3ncc(-c4cnn(CCCCCCC(=O)NCCNc5cccc6c5C(=O)N(C5CCC(=O)NC5=O)C6=O)c4)nc3c2)c1 (stereo unspecified) ?
1070

###

# assay name: MRT (infinity) in Sprague-Dawley rat at 5 mg/kg, ip measured for 24 hrs by LC-MS/MS analysis
# Type: ADME, organism-based
# measurement conditions: in vivo
assay metric: MRT inf (h)
Answers are plain numbers, in h.

What measured MRT inf goes with COc1cc(OC)cc(N(CCNC(C)C)c2ccc3ncc(-c4cnn(CCCCCCC(=O)NCCNc5cccc6c5C(=O)N(C5CCC(=O)NC5=O)C6=O)c4)nc3c2)c1 (stereo unspecified) ?
6.53

###

# assay name: Half life in Sprague-Dawley rat at 5 mg/kg, ip measured for 24 hrs by LC-MS/MS analysis
# Format: ADME, organism-based
# measurement conditions: in vivo
assay metric: half-life (h)
Numbers only, in h.

What measured half-life goes with COc1cc(OC)cc(N(CCNC(C)C)c2ccc3ncc(-c4cnn(CCCCCCC(=O)NCCNc5cccc6c5C(=O)N(C5CCC(=O)NC5=O)C6=O)c4)nc3c2)c1 (stereo unspecified) ?
7.59

###

# assay name: Apparent oral clearance in Sprague-Dawley rat at 5 mg/kg, ip measured for 24 hrs by LC-MS/MS analysis
# Assay type: ADME, organism-based
# measurement conditions: in vivo
assay metric: CL/F (mL/min/kg)
One number for each entry, in mL/min/kg.

What measured CL/F goes with COc1cc(OC)cc(N(CCNC(C)C)c2ccc3ncc(-c4cnn(CCCCCCC(=O)NCCNc5cccc6c5C(=O)N(C5CCC(=O)NC5=O)C6=O)c4)nc3c2)c1 (stereo unspecified) ?
78.2
